# Test target: human PD-L1/His fusion protein (human, UniProt Q9NZQ7 19-239)
# Sequence (Q9NZQ7 19-239 limits assumed): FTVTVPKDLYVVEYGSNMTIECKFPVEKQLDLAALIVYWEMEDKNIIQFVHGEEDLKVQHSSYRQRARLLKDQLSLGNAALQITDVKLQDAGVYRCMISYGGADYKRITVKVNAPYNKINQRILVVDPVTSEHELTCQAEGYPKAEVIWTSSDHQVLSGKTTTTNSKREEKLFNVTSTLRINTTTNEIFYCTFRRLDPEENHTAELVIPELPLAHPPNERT
# Experimental details: BLI off-rate; test group 3
# Method: Briefly, antibodies were characterized for affinities and binding kinetics by Octet®RED96 biolayer interferometry (Pall ForteBio LLC). Antibodies were captured by Anti-hIgG Fc Capture (AHC) Biosensors (Pall) at a concentration of 100 nM for 30 seconds. Sensors were then dipped into running buffer (1×pH 7.2 PBS, 0.05% Tween 20, 0.1% BSA) for 60 seconds to check baseline. Binding was measured by dipping sensors into a single concentration of recombinant human PD-L1/His fusion protein (Novoprotein). […]
# Off-Rate Ratio to that of EM0005-90c per record follows
Number plus unit, in that order.

Below: 2 binders and their reported Off-Rate Ratio to that of EM0005-90c.
Binder	Recorded endpoint	Result
HuEM0005-90-17 (antibody, human IgG1, V domains shown) VH: EVQLVQSGAEVKKPGASVKVSCKASGYTFTSHSINWVRQATGQGLEWMGYMYIGNGYTEYNEKFKGRVTLTSNTSISTAYMELSSLRSEDTAVYYCAKITPVVAPYVMDYWGQGTSVTVSS VL: DIVMTQSPSFLSASVGDRVTITCKASQDVGTAVAWYQQKPGKAPKLLIYWASTRHTGVPDRFTGSGSGTDFTLTISSLQPEDFATYYCQQYSSYPYTFGQGTKLEIK	Off-Rate Ratio to that of EM0005-90c	106%
HuEM0005-90-16 (antibody, human IgG1, V domains shown) VH: EVQLVQSGAEVKKPGASVKVSCKTSGYTFTSHSINWVRQATGQGLEWIGYMYIGNGYTEYNEKFKGRATLTSNTSISTAYMELSSLRSEDTAVYYCAKITPVVAPYVMDYWGQGTSVTVSS VL: DIQMTQSPSFLSASVGDRVTITCKASQDVGTAVAWYQQKPGKAPKLLIYWASTRHTGVPDRFTGSGSGTEFTLTISSLQPEDFATYYCQQYSSYPYTFGQGTKLEIK	Off-Rate Ratio to that of EM0005-90c	101%

Reported Off-Rate Ratio to that of EM0005-90c of HuEM0005-90-14 (antibody, human IgG1, V domains shown) VH: EVQLVQSGAEVKKPGASVKVSCKASGYTFTSHSINWVRQATGQGLEWIGYMYIGNGYTEYNEKFKGRATLTSNTSISTAYMELSSLRSEDTAVYYCAKITPVVAPYVMDYWGQGTSVTVSS VL: DIQMTQSPSFLSASVGDRVTITCKASQDVGTAVAWYQQKPGKAPKLLIYWASTRHTGVPDRFTGSGSGTEFTLTISSLQPEDFATYYCQQYSSYPYTFGQGTKLEIK : 98%
